Provenance of the data: the supplement of paper PMC10567573

Listing: protein stability index of selected variants
B1: ETS1 (parent)
chain: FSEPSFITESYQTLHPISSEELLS

- Variants of: B1
- PROCEDURE_DETAILS: protein stability index of a GFP-peptide fusion (GPS, HEK-293T) (PSI 1-6); higher = more stable;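 also: lentivirally expressed fusions sorted by FACS into six bins by GFP to DsRed ratio, PSI derived from sequencing read proportions per bin multiplied by bin number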
- DETAILS: c terminus: a fixed tail appended
Enter the number alone.

change=P4R metric="protein stability index" value_measured=2.13
change=P16A metric="protein stability index" value_measured=1.68
change=S19H metric="protein stability index" value_measured=1.94
change=E3Q metric="protein stability index" value_measured=1.7
change=E20R metric="protein stability index" value_measured=2.08

Input line: Quick check: protein stability index of S24Y ?
Output line: 1.79

Input line: Quick check: protein stability index of T13C ?
Output line: 1.67

Input line: Quick check: protein stability index of L14A ?
Output line: 2.08

Input line: Quick check: protein stability index of S10N ?
Output line: 1.99

Input line: Quick check: protein stability index of E21Y ?
Output line: 1.49

Input line: Quick check: protein stability index of E3P ?
Output line: 2.9

Input line: Quick check: protein stability index of S5P ?
Output line: 2.66

Input line: Quick check: protein stability index of S5G ?
Output line: 2.09
